Source of measurements: patent US20220098319A1

Consider the following binders; for each one, report its Inhibition assay of enzyme activity, MAX % inhibition.
- TARGET: T1, human CD73 (full length, on transfected CHOK1 cells) (human, UniProt P21589 27-549)
- T1 sequence (looked up): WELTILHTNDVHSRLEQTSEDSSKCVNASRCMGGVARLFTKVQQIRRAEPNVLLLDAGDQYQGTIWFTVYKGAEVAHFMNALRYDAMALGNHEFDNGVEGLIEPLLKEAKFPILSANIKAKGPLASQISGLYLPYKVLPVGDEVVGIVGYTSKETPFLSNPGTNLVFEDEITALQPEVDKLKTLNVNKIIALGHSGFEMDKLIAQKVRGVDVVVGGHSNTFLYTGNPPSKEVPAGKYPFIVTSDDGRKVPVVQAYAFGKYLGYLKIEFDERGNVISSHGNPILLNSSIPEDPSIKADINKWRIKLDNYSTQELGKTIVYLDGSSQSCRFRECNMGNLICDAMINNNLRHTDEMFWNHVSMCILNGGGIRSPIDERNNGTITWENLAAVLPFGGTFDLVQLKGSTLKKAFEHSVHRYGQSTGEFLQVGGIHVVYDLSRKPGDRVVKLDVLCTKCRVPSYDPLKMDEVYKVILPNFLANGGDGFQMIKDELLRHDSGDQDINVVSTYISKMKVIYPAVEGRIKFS
- PROTOCOL_TEXT: cell-based or functional assay
Respond numerically; units are % and should not be typed.

IN: Identify Inhibition assay of enzyme activity, MAX % inhibition associated with the binder mab065xhIgG1TM (clone 125A4E10), mouse-human chimeric anti-CD73 antibody (antibody, V domains shown, also called mAb065 chimeric antibody) VH: EVQLQQSGPELVKPGASVKISCKASGYTFTDYYMNWVKQSHGKSLEWIGNINPNNGDTNYNQKFKGKATLTVDKSSSTASMELRSLTSEDSAVYYCANSGYYYFDYWGQGTTLTVSS VL: DIVMTQSPSSLTVTAGEKVTMSCKSSQSLLNSGNQKNYLTWYQQKPGQPPKVLIYWASTRESGVPDRFTGSGSGTDFTLTISSVQAEDLAVYYCQNDYSYPPTFGGGTNLEIK
OUT: 54.7

IN: Determine its reported Inhibition assay of enzyme activity, MAX % inhibition: mab020xhIgG1TM (clone 24D6B4), mouse-human chimeric anti-CD73 antibody (antibody, V domains shown, also called mAb020 chimeric antibody) VH: EVQLQQSGPELVKPGASVKIPCKASGYTFTDYNMDWVKQRHGKSLEWIGDINPNNGGTVYNQKFKGKATLTVDKSSNTAYMELRSLTSEDTAVYYCARISGTGYWYFDVWGTGTTVTVSS VL: DIQMTQSPASLSVSVGETVTITCRASENIYSNLAWYQQKQGKSPQLLVYGATNLADGVPSRFSGSDSGTQYSLKINSLQSEDFGSYYCQHFWGTPWTFGGGTKLEIK
OUT: 57.7

IN: Note down Inhibition assay of enzyme activity, MAX % inhibition recorded for mab041xhIgG1TM (clone 71E10B3), mouse-human chimeric anti-CD73 antibody (antibody, V domains shown, also called mAb041 chimeric antibody) VH: QVQLQQPGTELVKPGASVKLSCKASGYTFTSYWMHWVKQRPGQGLEWIGNINPSNGGTNYNQKFKSKATLTVDKSSNTASMQLSSLTSEDSAVYYCARGDYGYDWYLDVWGTGTTVTVSS VL: DIVLTQSPASLAVSLGQRAIISCKASQSVSFAGPSLMHWYQQKPGQQPKLLIYRTSNLEAGVPTRFSGSGSGTDFTLNIHPVEEDDAATYYCQQNREFPWTFGGGTKLEIK
OUT: 54.4

IN: Tell us which Inhibition assay of enzyme activity, MAX % inhibition value is on record for mab044xhIgG1TM (clone 80H7D6), mouse-human chimeric anti-CD73 antibody (antibody, V domains shown, also called mAb044 chimeric antibody) VH: EVKLVESGGGLVQPGGSLRLSCAASGFTFTDYYMSWVRQPPGKALEWLGFIRNKADGSTTEYSASVKGRFTISRDNSQSILYLQMNALRPEDSATYYCTRSPIYFDNWYFDVWGTGTTVTVSS VL: DIVMSQSPSSLAVSVGEKVTMTCKSSQSLLYSNNQKNYLAWYQQKPGQSPKLLIYWASTRESGVPDRFTGSGSGTDFTLTLSSVKAEDLAVYYCQQYYSYPFTFGSGTKLEIK
OUT: 49.1

IN: Let me know recorded Inhibition assay of enzyme activity, MAX % inhibition for mab038xhIgG1TM (clone 69C9E12), mouse-human chimeric anti-CD73 antibody (antibody, V domains shown, also called mAb038 chimeric antibody) VH: QVQLQQPGTELVNPGASVKLSCKASGYTFTSYWMHWVKQRPGQGLEWIGNINPSNGGTHYNEKFNNKATLTVDKSSSTAYMQLSSLTSEDSAVFYCARGDYAYDWYFTVWGTGTTVTVSS VL: DIVLTQSPASLAVSLGQRAIISCKASQSVSFAGTGLMHWYQQKPGQQPKLLIYRVSNLEAGIPTRFSGSGSRTDFTLNIHPVEEDDAATYYCQQNREFPWTFGGGTKLEIK , thanks.
OUT: 52.4
